These entries and their values trace back to patent US6602854B1.

- assay_procedure: Circular dichroism: degree of helicity (free, SUVs, micelles, TFE)
- condition_label: percent helicity of peptide-micelle complexes
Where no end group is shown, it is not given here. [ ]: non-standard residue; d: D form. Aib = CC(C)(N)C(=O)O
measured_property: He (%) mics

>>> readout_number("197 (Ac-PLLDLFRELLEELKQKLK-NH2) [compound 197]")
70
>>> readout_number("50 (PVLDLFRELLWE[Aib]LEALKQKLK) [compound 50]")
84
>>> readout_number("39 (PVLDLFRELLEELLKALKKKLK) [compound 39]")
69
>>> readout_number("240 (Ac-DWLKAFYDKVAEKLKEAF-NH2) [compound 240]")
68
>>> readout_number("36 (PLLELLKELLQELLEALKQKLK) [compound 36]")
100
>>> readout_number("217 (PVLDLFRELLELLKQKLK) [compound 217]")
78
>>> readout_number("PVLDLFRELLNELZEALKQKLK [peptide 27]")
92
>>> readout_number("154 (PVLELFENLLERGLDALQKKLK) [compound 154]")
76
>>> readout_number("215 (Ac-PVLDLFRELLEEWKQKLK-NH2) [compound 215]")
63
>>> readout_number("194 (Ac-PVLELFRELLEELKQKLK-NH2) [compound 194]")
93
>>> readout_number("108 (PVLDLFRWLLNE[Aib]LEALKQKLK) [compound 108]")
55
>>> readout_number("38 (PVLDLFRELLNE[Aib]LEAWKQKLK) [compound 38]")
49
>>> readout_number("DWFKAFYDKVAEKFKEAF [peptide 243, reference compound]")
64
>>> readout_number("160 (PVLELFENLLERLLDWLQKKLK) [compound 160]")
73
>>> readout_number("162 (PVLELFENWLERLLDALQKKLK) [compound 162]")
83
>>> readout_number("49 (PVLDLFRNLLEKLLEALEQKLK) [compound 49]")
65
>>> readout_number("104 (PLLNELLEALKQKLK) [compound 104]")
49
>>> readout_number("149 (PVLELFENLWERLLDALQKKLK) [compound 149]")
54
>>> readout_number("163 (PVLELFENLLERLWDALQKKLK) [compound 163]")
53
>>> readout_number("PVLDEFREKLNERLEALKQKLK [peptide 109, reference compound]")
45
>>> readout_number("66 (PVLDLFRNLLEELLEALQKKLK) [compound 66]")
82
>>> readout_number("146 (PVLELFENLLERLLDALQKKLK) [compound 146]")
100
>>> readout_number("PVLDLFRELLNELLEAZKQKLK [peptide 10]")
87
>>> readout_number("40 (PVLDLFNELLRELLEALQKKLK) [compound 40]")
84
>>> readout_number("60 (PVLDLFRELLNELLEALKQ) [compound 60]")
83
>>> readout_number("46 (PVLDLFREKLNE[Aib]LEALKQKLK) [compound 46]")
86
>>> readout_number("113 (PVLDEFREKLNEPLEALKQKLK) [compound 113]")
22
>>> readout_number("51 (PVLDLFWELLNE[Aib]LEALKQKLK) [compound 51]")
82
>>> readout_number("DWLKAFYDKVAEKLKEAF [peptide 244, reference compound]")
40
>>> readout_number("PVLDLFRELLNEXLEALKQKLK (PVLDLFRELLNE[Aib]LEALKQKLK) [peptide 6]")
93
>>> readout_number("70 (PVLDEFRELLYE[Aib]LEALKQKLK) [compound 70]")
78
>>> readout_number("EWLKAFYEKVLEKLKELF* [peptide 238, reference compound]")
72
>>> readout_number("EWLKAFYEKVLEKLKELF [peptide 248, reference compound]")
45
>>> readout_number("220 (PVLDLFRELLEELQKKLK) [compound 220]")
64
>>> readout_number("PVLDLFRELLNELLEWLKQKLK [peptide 3]")
95
>>> readout_number("PVLDLFKELLNELLEALKQKLK [peptide 7]")
89
>>> readout_number("210 (PVLDLFRELLEELKQKLK) [compound 210]")
63
>>> readout_number("35 (PVLDWFRELLNELLEALKQKLK) [compound 35]")
59
>>> readout_number("54 (PVLDLFRELLNEWLEALKQKLK) [compound 54]")
71
>>> readout_number("99 (KLKQKLAELLENLLERFLDLVP) [compound 99]")
88
>>> readout_number("164 (PVLELFENLLERLLDAWQKKLK) [compound 164]")
66
>>> readout_number("85 (PLDLFRELLNELLEALKQKLK) [compound 85]")
61
>>> readout_number("148 (PVLELFENLLERLGDALQKKLK) [compound 148]")
76
>>> readout_number("41 (PVLDLWRELLNE[Aib]LEALKQKLK) [compound 41]")
73

###

- assay_procedure: Circular dichroism: degree of helicity (free, SUVs, micelles, TFE)
- condition_label: percent helicity of peptide-SUV complexes
Where no end group is shown, it is not given here. [ ]: non-standard residue; d: D form. Aib = CC(C)(N)C(=O)O
Listed substances paired with reported He (%) SUVs
measured_property: He (%) SUVs

>>> readout_number("PVLDLFRELLNELLEALKQKLK [peptide 4]")
97
>>> readout_number("PVLDLFRELWNELLEALKQKLK [peptide 15]")
64
>>> readout_number("104 (PLLNELLEALKQKLK) [compound 104]")
29
>>> readout_number("39 (PVLDLFRELLEELLKALKKKLK) [compound 39]")
68
>>> readout_number("220 (PVLDLFRELLEELQKKLK) [compound 220]")
54
>>> readout_number("240 (Ac-DWLKAFYDKVAEKLKEAF-NH2) [compound 240]")
59
>>> readout_number("210 (PVLDLFRELLEELKQKLK) [compound 210]")
37
>>> readout_number("55 (PLFRELLNELLEALKQKLK) [compound 55]")
78
>>> readout_number("37 (PVLDLFREWLNELLEALKQKLK) [compound 37]")
76
>>> readout_number("62 (PVLDEWREKLNE[Aib]LEALKQKLK) [compound 62]")
43
>>> readout_number("EWLEAFYKKVLEKLKELF [peptide 18AM4, reference compound]")
47
>>> readout_number("66 (PVLDLFRNLLEELLEALQKKLK) [compound 66]")
66
>>> readout_number("54 (PVLDLFRELLNEWLEALKQKLK) [compound 54]")
84
>>> readout_number("146 (PVLELFENLLERLLDALQKKLK) [compound 146]")
100
>>> readout_number("49 (PVLDLFRNLLEKLLEALEQKLK) [compound 49]")
52
>>> readout_number("EWLKAFYEKVLEKLKELF [peptide 248, reference compound]")
13
>>> readout_number("162 (PVLELFENWLERLLDALQKKLK) [compound 162]")
81
>>> readout_number("85 (PLDLFRELLNELLEALKQKLK) [compound 85]")
64
>>> readout_number("148 (PVLELFENLLERLGDALQKKLK) [compound 148]")
23
>>> readout_number("DWFKAFYDKVAEKFKEAF [peptide 243, reference compound]")
50
>>> readout_number("60 (PVLDLFRELLNELLEALKQ) [compound 60]")
66
>>> readout_number("DWLKAFYDKVAEKLKEAF [peptide 244, reference compound]")
13
>>> readout_number("41 (PVLDLWRELLNE[Aib]LEALKQKLK) [compound 41]")
85

###

Listed substances paired with reported He (%) free
- assay_procedure: Circular dichroism: degree of helicity (free, SUVs, micelles, TFE)
- condition_label: percent helicity of free, unbound peptide
Where no end group is shown, it is not given here. [ ]: non-standard residue; d: D form. Nal = non-natural residue; Aib = CC(C)(N)C(=O)O
measured_property: He (%) free

>>> readout_number("220 (PVLDLFRELLEELQKKLK) [compound 220]")
27
>>> readout_number("PVLDLFRELLNEXLEALKQKLK (PVLDLFRELLNE[Aib]LEALKQKLK) [peptide 6]")
57
>>> readout_number("197 (Ac-PLLDLFRELLEELKQKLK-NH2) [compound 197]")
43
>>> readout_number("PVLDLFRELLNELZEALKQKLK [peptide 27]")
72
>>> readout_number("113 (PVLDEFREKLNEPLEALKQKLK) [compound 113]")
6
>>> readout_number("41 (PVLDLWRELLNE[Aib]LEALKQKLK) [compound 41]")
53
>>> readout_number("54 (PVLDLFRELLNEWLEALKQKLK) [compound 54]")
76
>>> readout_number("DWFKAFYDKVAEKFKEAF [peptide 243, reference compound]")
10
>>> readout_number("PVLDFFRELLNEXLEALKQKLK (PVLDFFRELLNE[Aib]LEALKQKLK) [peptide 25]")
46
>>> readout_number("PVLDLFRELLNELLEALOQOLO [peptide 14]")
70
>>> readout_number("50 (PVLDLFRELLWE[Aib]LEALKQKLK) [compound 50]")
68
>>> readout_number("PVLDEFREKLNERLEALKQKLK [peptide 109, reference compound]")
19
>>> readout_number("38 (PVLDLFRELLNE[Aib]LEAWKQKLK) [compound 38]")
25
>>> readout_number("146 (PVLELFENLLERLLDALQKKLK) [compound 146]")
97
>>> readout_number("91 (PVLDEFRELLNE[Aib]LEALKQKLK) [compound 91]")
43
>>> readout_number("154 (PVLELFENLLERGLDALQKKLK) [compound 154]")
13
>>> readout_number("PVLDLFRELLNELLEZLKQKLK (PVLDLFRELLNELLE[Nal]LKQKLK; not fully specified) [peptide 1]")
77
>>> readout_number("85 (PLDLFRELLNELLEALKQKLK) [compound 85]")
58
>>> readout_number("217 (PVLDLFRELLELLKQKLK) [compound 217]")
52
>>> readout_number("70 (PVLDEFRELLYE[Aib]LEALKQKLK) [compound 70]")
27
>>> readout_number("193 (Ac-PVLDLFRELLEELKQKLK-NH2) [compound 193]")
34
